Cited source: patent US11311625B2

- Test system: HCT 116, H1299, TRAMP C2 and HEK cell lines
- Assay: XTT growth inhibition assay, statements over all tested cell lines
- Assay type: cell-based, human
- Condition: 1-10 μM, 24 and 72 h
Readout: cytotoxicity throughout the study

Compound	Result
C[C@@H](O)[C@@H]1NC(=O)[C@H](CCCCN)NC(=O)[C@@H](Cc2c[nH]c3ccccc23)NC(=O)[C@H](Cc2c[nH]c3ccccc23)NC(=O)[C@H](Cc2ccccc2)NC(=O)[C@@H](NC(=O)[C@@H](Cc2ccccc2)NC(=O)CCCNC(=O)CCCc2ccc(N(CCCl)CCCl)cc2)CSSCCN(CC(N)=O)C(=O)[C@H](Cc2ccccc2)NC1=O [conjugate 1a]	poorly active
CN(C)CCN1C(=O)c2cccc3cc(N)cc(c23)C1=O [amonafide, reference compound]	poorly active
